meta.source: PubChem BioAssay (EPA / NIEHS)

# assayed_target: Estrogen receptor (Homo sapiens) (UniProt P03372)
# Sequence (P03372 whole entry, looked up): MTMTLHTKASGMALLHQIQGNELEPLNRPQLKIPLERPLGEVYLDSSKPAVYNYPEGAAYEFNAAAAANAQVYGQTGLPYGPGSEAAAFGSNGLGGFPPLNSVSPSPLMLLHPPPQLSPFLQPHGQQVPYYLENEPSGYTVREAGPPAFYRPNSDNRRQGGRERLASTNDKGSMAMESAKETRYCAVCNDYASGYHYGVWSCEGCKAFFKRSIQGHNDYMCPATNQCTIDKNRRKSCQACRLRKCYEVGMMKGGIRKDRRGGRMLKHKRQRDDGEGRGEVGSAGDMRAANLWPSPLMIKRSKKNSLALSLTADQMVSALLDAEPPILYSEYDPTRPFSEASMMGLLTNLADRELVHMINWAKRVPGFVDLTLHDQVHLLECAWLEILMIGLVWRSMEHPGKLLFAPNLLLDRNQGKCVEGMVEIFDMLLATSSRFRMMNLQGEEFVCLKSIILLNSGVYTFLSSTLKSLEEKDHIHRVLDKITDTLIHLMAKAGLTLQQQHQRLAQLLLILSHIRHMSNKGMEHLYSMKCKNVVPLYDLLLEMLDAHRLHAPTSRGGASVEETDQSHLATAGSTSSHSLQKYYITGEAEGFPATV
# assay_details: ATG_ERa_TRANS: Attagene TRANS-FACTORIAL HepG2 Assay for human Estrogen Receptor alpha (ERa) (AID 2282970)
# condition_notes: HepG2 Attagene TRANS ERa GAL4 reporter, mRNA
# Description: ATG_TRANS is a cell-based, multiplexed-readout assay that uses HepG2, a human liver cell line, with measurements taken at 24 hours after chemical dosing in a 24-well plate.ATG_ERa_TRANS is one of 30 assay component(s) measured or calculated from the ATG_TRANS assay. […] This assay endpoint, ATG_ERa_TRANS, was analyzed in the positive analysis fitting direction relative to DMSO as the negative control and baseline of activity. […]
Records with an inconclusive call do not appear. Activity calls are given as the source filed them. How the source made its calls: active means hit-call score of the fitted dose curve at least 0.9, where 1 is the maximum; inconclusive means response in the unintended direction; inactive means score below 0.9.
Response enum: T for active, F for inactive

{"compound": "C=C[Si](OCCOC)(OCCOC)OCCOC", "cat": "F"}

What call does the record list for CC(C)(CO)COC(=O)C(C)(C)CO ? F

Another: CCCCCCCCCCCC(=O)OCC F

Another: c1ccc2cnccc2c1 F

Another: CC(C)c1ccc2ncccc2c1 F

Another: CCCCCCCCCCCCC F

Another: CO[Si](CCCS)(OC)OC F

Another: CC1CCC(=O)C1=O (stereo not given) F

Another: O=C(O)CCC(=O)O F

Another: COc1cc(O)c(C(=O)c2ccccc2)cc1S(=O)(=O)O F

Another: C=CC(=O)O[C@H]1C[C@@H]2CC[C@@]1(C)C2(C)C T
